experimentSummary: Quantitative highthroughput screen to assess conditional lethalithy of NOMO1 cells grown in Human Plasma-Like Medium with dialyzed fetal bovine serum (HPLM+ds) (AID 1963878); note: nearly all actives have a fitted effect of over 35% in size;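 for viability: 100% = DMSO wells and 0% = empty wells on each plate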
testSettings: NOMO1 AML cells in HPLM+ds, CellTiter-Glo viability, 48 h; series mostly up to 45.8 µM
Inconclusive results are not listed. Active and inactive are the calls of the source. Calls come from the whole dose curve; as a rule, active = well fitted cell-killing curve with a large enough effect; inconclusive = small, poorly fitted or top-dose-only effect, or effect the other way; inactive = no such curve, though single readings can be large or run the other way.
Would you mind answering with one of these outcomes? active, inactive

Example entries and their recorded answers appear below.
Request: Called result for OC[C@H]1O[C@@H](OCCc2ccc(O)cc2)[C@H](O)[C@@H](O)[C@H]1O
Result: inactive

Request: Called result for CCC(C)n1ncn(-c2ccc(N3CCN(c4ccc(OC[C@H]5CO[C@](Cn6cncn6)(c6ccc(Cl)cc6Cl)O5)cc4)CC3)cc2)c1=O (some centres undefined)
Result: inactive

Request: Called result for N[C@@H](Cc1cc(I)c(Oc2cc(I)c(O)c(I)c2)c(I)c1)C(=O)O
Result: inactive

Request: Called result for COc1ccc2c(c1)c(CC(=O)OCC(=O)O)c(C)n2C(=O)c1ccc(Cl)cc1
Result: inactive

More entries:
Request: Called result for CN(C)C(=O)c1ccc(S(=O)(=O)c2ccc(NC(=O)[C@@](C)(O)C(F)(F)F)c(Cl)c2)cc1
Result: active

Request: Called result for CCc1ccc(C(=O)Nc2cc(CN3CCN(C)CC3)cc(C(F)(F)F)c2)cc1C#Cc1cnc2ccnn2c1
Result: inactive

Request: Called result for O=[N+]([O-])c1ccc(Nc2ccccc2-c2ccccc2)c2nonc12
Result: inactive

* * *

experimentSummary: Quantitative highthroughput screen to assess conditional lethalithy of P12 Ichikawa cells grown in RPMI1640 with dialyzed fetal bovine serum (RPMI+ds) (AID 1963880); note: nearly all actives have a fitted effect of over 35% in size;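 for viability: 100% = DMSO wells and 0% = empty wells on each plate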
testSettings: ATP luminescence, 48 h; P12-Ichikawa viability; series mostly up to 45.8 µM
Records with an inconclusive call do not appear. Activity calls are given as the source filed them. The call rests on the fitted dose curve; in most records, active means well fitted cell-killing curve with a large enough effect; inconclusive means small, poorly fitted or top-dose-only effect; inactive means flat fitted curve, though single readings scatter.
Would you mind answering with one of these outcomes? 1 (yes) = active, 0 (no) = inactive

Example entries and their recorded answers appear below.
Request: Called result for CNC(=O)c1cc(Oc2ccc(NC(=O)Nc3ccc(Cl)c(C(F)(F)F)c3)c(F)c2)ccn1
Result: 0 (no)

Request: Called result for Cc1ccc2c(c1)C(=O)[C@]1(O)CCN(c3ccccc3)C1=N2
Result: 0 (no)

Request: Called result for COCCn1c2c([n+](Cc3cnccn3)c1C)C(=O)c1ccccc1C2=O
Result: 1 (yes)

Request: Called result for COc1cc2c(cc1Cc1cccc(Cl)c1F)c(=O)c(C(=O)O)cn2[C@H](CO)C(C)C
Result: 1 (yes)

Request: Called result for CCc1ccc(C(=O)Nc2cc(CN3CCN(C)CC3)cc(C(F)(F)F)c2)cc1C#Cc1cnc2ccnn2c1
Result: 0 (no)

Request: Called result for C1Cc2[nH]nc(-c3nn[nH]n3)c2C1
Result: 0 (no)

More entries:
Request: Called result for CCC(C)(C)c1ccc(CC(C)CN2C[C@@H](C)O[C@@H](C)C2)cc1 (stereo not given in full)
Result: 0 (no)

* * *

experimentSummary: Cellular viability qHTS for adrenocortical cancer (ACC) cell line NCI-H295R (AID 1963990);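 note: 0% = DMSO only wells and -100% = full killing with cytotoxic reference compound; nearly all actives have a fitted effect of over 60% in size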
testSettings: CellTiter-Glo ATP luminescence, 48 h; series mostly up to 46.1 µM
Inconclusive results are not listed. Calls of active or inactive are those of the source. Calls follow the shape of the dose curve; as a rule, active = well fitted cell-killing curve with a large enough effect; inconclusive = small, poorly fitted or top-dose-only effect; inactive = flat fitted curve, though single readings scatter.
Would you mind answering with one of these outcomes? T = active, F = inactive

Example entries and their recorded answers appear below.
Request: Called result for C=C1C(=CC=C2CCC[C@]3(C)[C@@H]([C@H](C)C=C[C@H](C)C(C)C)CC[C@@H]23)C[C@@H](O)C[C@@H]1O
Result: F

Request: Called result for CCCNC(C)(C)COC(=O)c1ccccc1
Result: F

More entries:
Request: Called result for C[C@]1(c2nc3c(C(N)=O)cccc3[nH]2)CCCN1
Result: F

Request: Called result for Cc1ccc(NC(=O)[C@H]2CCCN(C(=O)c3c(C)cccc3F)[C@H]2c2ccc(NC3CCCC3)cc2)cc1C(F)(F)F
Result: F

Reference for the values: PubChem BioAssay (NCATS)
